// provenance: paper PMC12820563

Target: MBP-FoxP3dN (Mus musculus, UniProt Q99JB6 188-423)
Sequence: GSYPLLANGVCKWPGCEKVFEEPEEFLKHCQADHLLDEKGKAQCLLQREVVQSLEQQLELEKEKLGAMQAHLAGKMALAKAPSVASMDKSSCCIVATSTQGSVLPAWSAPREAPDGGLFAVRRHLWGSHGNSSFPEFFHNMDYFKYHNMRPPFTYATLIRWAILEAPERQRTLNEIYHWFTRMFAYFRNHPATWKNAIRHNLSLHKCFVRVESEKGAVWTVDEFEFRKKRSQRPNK
Experiment: PD-seq (MBP pull-down with sequencing); 20 mM Tris-HCl pH 7.5, 100 mM NaCl, 1.5 mM MgCl2, 0.4 uM protein, 0.1 uM dsDNA library, 30 min, room temperature, amylose pull-down; high values mean tight binding
Details: protein: recombinant; tags: His6-MBP; chain copies: 2; dsDNA, one strand shown
Over roughly 16,000 sequences, “rpm ratio (pull-down/input)” has its median near 0.5; the highest 2% begin near 5.5. The list comes from a sample in which the highest values are over-represented; it also holds close analogues and randomly drawn sequences.

ITEM_SEQUENCE | binding signal
GATGATTGTTCTCCCAGCTGATGAATTCAAAACCTCGAGTAAACAAATTTTCCTAATCTTTCTGTTCAAGCGCCATCTAC | 0.276 RPM ratio (pull-down/input)
GATGATTGTTCTCCCAGCTGATGAATTTATTGTTTCGAGTAAACAAATTTTCCTAATCTTTCTGTTCAAGCGCCATCTAC | 6.4 RPM ratio (pull-down/input)
GATGATTGTTCTCCCAGCTGATGAATTACGTGACTCGAGTAAACAAATTTTCCTAATCTTTCTGTTCAAGCGCCATCTAC | 0.737 RPM ratio (pull-down/input)
GATGATTGTTCTCCCAGCTGATGAATTCGAGCCATCGAGTAAACAAATTTTCCTAATCTTTCTGTTCAAGCGCCATCTAC | 1.13 RPM ratio (pull-down/input)
GATGATTGTTCTCCCAGCTGATGAATTGTTTATTTCGAGTAAACAAATTTTCCTAATCTTTCTGTTCAAGCGCCATCTAC | 6.99 RPM ratio (pull-down/input)
GATGATTGTTCTCCCAGCTGATGAATTCGTCACGTCGAGTAAACAAATTTTCCTAATCTTTCTGTTCAAGCGCCATCTAC | 1.77 RPM ratio (pull-down/input)
GATGATTGTTCTCCCAGCTGATGAATTCGCCGCATCGAGTAAACAAATTTTCCTAATCTTTCTGTTCAAGCGCCATCTAC | 0.966 RPM ratio (pull-down/input)
